Target: MATE2-K (Homo sapiens)
Sequence (Q86VL8 whole entry): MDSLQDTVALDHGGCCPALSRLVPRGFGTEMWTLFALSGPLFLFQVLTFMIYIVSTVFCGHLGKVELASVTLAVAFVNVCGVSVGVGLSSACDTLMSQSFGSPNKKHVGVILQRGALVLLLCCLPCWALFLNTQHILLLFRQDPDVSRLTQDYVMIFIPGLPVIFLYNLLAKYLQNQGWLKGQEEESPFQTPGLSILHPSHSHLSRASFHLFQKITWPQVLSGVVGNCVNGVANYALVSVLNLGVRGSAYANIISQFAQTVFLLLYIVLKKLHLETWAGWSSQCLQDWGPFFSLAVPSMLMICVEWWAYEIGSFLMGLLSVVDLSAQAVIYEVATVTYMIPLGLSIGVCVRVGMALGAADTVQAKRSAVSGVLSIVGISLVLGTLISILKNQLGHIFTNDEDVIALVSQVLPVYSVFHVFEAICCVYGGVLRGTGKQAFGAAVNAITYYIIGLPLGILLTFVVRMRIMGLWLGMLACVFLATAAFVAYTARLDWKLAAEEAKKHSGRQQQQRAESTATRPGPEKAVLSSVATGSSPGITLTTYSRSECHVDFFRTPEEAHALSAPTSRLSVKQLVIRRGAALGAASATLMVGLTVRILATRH
Test: in vitro
Settings: HEK293 cells expressing MATE2-K
Assay Readout: uptake ratio at 1 min, 2.5 µM

Find the recorded uptake ratio at 1 min, 2.5 µM belonging to C=CCN1CCCC1CNC(=O)c1cc(S(N)(=O)=O)cc(OC)c1OC (configuration not stated) [VERALIPRIDE] and report it.
> 2

Find the recorded uptake ratio at 1 min, 2.5 µM belonging to COc1ccc(CCN)cc1 and report it.
< 2

Find the recorded uptake ratio at 1 min, 2.5 µM belonging to N=C(N)NCc1cccc(I)c1 and report it.
> 2

Find the recorded uptake ratio at 1 min, 2.5 µM belonging to O=C(NCCNCC(O)COc1ccc(O)cc1)N1CCOCC1 (configuration not stated) and report it.
> 2

Find the recorded uptake ratio at 1 min, 2.5 µM belonging to CC[C@@]1(O)C(=O)OCc2c1cc1n(c2=O)Cc2cc3c(CN(C)C)c(O)ccc3nc2-1 and report it.
> 2

Find the recorded uptake ratio at 1 min, 2.5 µM belonging to OC(CNCC(O)C1CCc2cc(F)ccc2O1)C1CCc2cc(F)ccc2O1 (configuration not stated) and report it.
< 2

Find the recorded uptake ratio at 1 min, 2.5 µM belonging to COCCn1c2c([n+](Cc3cnccn3)c1C)C(=O)c1ccccc1C2=O and report it.
> 2

Find the recorded uptake ratio at 1 min, 2.5 µM belonging to COc1cc(C(O)CN)ccc1O (configuration not stated) and report it.
< 2

Find the recorded uptake ratio at 1 min, 2.5 µM belonging to NCCCC(=O)O and report it.
< 2

Find the recorded uptake ratio at 1 min, 2.5 µM belonging to C[N+]1(CCC(C(N)=O)(c2ccccc2)c2ccccc2)CCCCC1 and report it.
< 2

Find the recorded uptake ratio at 1 min, 2.5 µM belonging to CN(C)C(=N)NCCC[C@H](N)C(=O)O and report it.
< 2

Find the recorded uptake ratio at 1 min, 2.5 µM belonging to CCN1CCCC1CNC(=O)c1cc(S(=O)(=O)CC)c(N)cc1OC (racemic) [AMISULPRIDE] and report it.
> 2

Find the recorded uptake ratio at 1 min, 2.5 µM belonging to N=C(N)NC(=N)Nc1ccc(Cl)cc1 [4-CHLOROPHENYLBIGUANIDE] and report it.
> 2

Find the recorded uptake ratio at 1 min, 2.5 µM belonging to N=C(N)NCCC[C@H](NC(=O)c1ccc2ccccc2c1O)C(=O)N1CCC[C@H]1C(N)=O and report it.
< 2

Find the recorded uptake ratio at 1 min, 2.5 µM belonging to NC(N)=NCCCCN=C(N)N and report it.
> 2

Find the recorded uptake ratio at 1 min, 2.5 µM belonging to COc1ccc(CCN)cc1O and report it.
< 2

Find the recorded uptake ratio at 1 min, 2.5 µM belonging to Nc1ccncc1N and report it.
> 2

Find the recorded uptake ratio at 1 min, 2.5 µM belonging to O=C(O[C@H]1C[C@H]2CC[C@@H](C1)[N+]21CCCC1)C(O)(c1ccccc1)c1ccccc1 and report it.
< 2

Find the recorded uptake ratio at 1 min, 2.5 µM belonging to Nc1ccn([C@@H]2O[C@H](CO)[C@@H](O)C2(F)F)c(=O)n1 and report it.
< 2

Find the recorded uptake ratio at 1 min, 2.5 µM belonging to COc1cc2c(cc1OC)-c1c(C)c3ccc(OC)c(OC)c3c[n+]1CC2 [DEHYDROCORYDALINE] and report it.
> 2

Find the recorded uptake ratio at 1 min, 2.5 µM belonging to OC(c1ccccc1)(c1ccccc1)C12CC[N+](CCOCc3ccccc3)(CC1)CC2 and report it.
< 2

Find the recorded uptake ratio at 1 min, 2.5 µM belonging to N[C@@H](CC(=O)N1CCn2c(nnc2C(F)(F)F)C1)Cc1cc(F)c(F)cc1F and report it.
> 2

Find the recorded uptake ratio at 1 min, 2.5 µM belonging to CC(C)NCC(O)COc1cccc2[nH]ccc12 (configuration not stated) and report it.
< 2

Find the recorded uptake ratio at 1 min, 2.5 µM belonging to C[N+]1(C)CCCC(OC(=O)C(O)(c2ccccc2)c2ccccc2)C1 (configuration not stated) [MEPENZOLATE BROMIDE] and report it.
> 2

Find the recorded uptake ratio at 1 min, 2.5 µM belonging to CN1CCC[C@@H]1Cc1c[nH]c2ccc(CCS(=O)(=O)c3ccccc3)cc12 and report it.
< 2

Find the recorded uptake ratio at 1 min, 2.5 µM belonging to NCCc1cccc(O)c1 and report it.
< 2

Find the recorded uptake ratio at 1 min, 2.5 µM belonging to COc1cccc2c1C(=O)c1c(O)c3c(c(O)c1C2=O)C[C@@](O)(C(C)=O)C[C@@H]3O[C@H]1C[C@H](N)[C@H](O)[C@H](C)O1 and report it.
< 2
